pIC50 reference
Target: human DYRK1A (Homo sapiens)
Construct: Recombinant full-length DYRK1A (expressed in E. Coli cells with an N-terminal GST tag); GST (N); purchased SignalChem D09-10G; host or cells: E. coli
Test: DYRK1A enzyme assay (ADP-Glo)
Type: biochemical
Conditions: ADP-Glo, ATP 60 μM; read-out: DYRK1A IC50
Procedure: The ability of compounds to inhibit human DYRK1A kinase activities was determined using a commercially available ADP-Glo™ Kinase Assay kit (Promega, Cat #V9102) according to the manufacturer's protocol. Recombinant full-length DYRK1A (expressed in E. Coli cells with an N-terminal GST tag) was purchased from SignalChem (Cat #D09-10G). The DYRK substrate peptide (DYRKtide, sequence: […]) was purchased from SignalChem (Cat #D96-58). […] The light generated is measured using a luminometer. […]
pIC50: −log10 of the molar value.

Please review the following examples before continuing.
# smi, pIC50
data = [
    ("O=C1NC(Nc2ccccc2)=N/C1=C\\c1ccc2scnc2c1", "< 5.00"),
    ("CN(Cc1ccccc1)C1=N/C(=C\\c2ccc3c(c2)OCO3)C(=O)N1", "6.00 to 7.00"),
    ("CN(CCN1CCOCC1)C1=N/C(=C\\c2ccc3ncsc3c2)C(=O)N1", "5.00 to 6.00"),
]

Record `O=C1NC(Nc2ccc3ncsc3c2)=N/C1=C\c1ccc2occc2c1` : what is its pIC50 with human DYRK1A (Homo sapiens)? < 5.00

Record `O=C1NC(Nc2ccccc2)=N/C1=C\c1ccc2nccnc2c1` : what is its pIC50 with human DYRK1A (Homo sapiens)? > 7.00

Record `Cn1cnc2ccc(/C=C3\N=C(Nc4ccccc4)NC3=O)cc21` : what is its pIC50 with human DYRK1A (Homo sapiens)? > 7.00

Record `CN(C1=N/C(=C\c2ccc3c(c2)OCO3)C(=O)N1)c1ccccc1` : what is its pIC50 with human DYRK1A (Homo sapiens)? 6.00 to 7.00

Record `O=C1NC(N(Cc2ccccc2)c2ccccc2)=N/C1=C\c1ccc2c(c1)OCO2` : what is its pIC50 with human DYRK1A (Homo sapiens)? < 5.00

Record `CC(C)NC1=N/C(=C\c2ccc3ncsc3c2)C(=O)N1C` : what is its pIC50 with human DYRK1A (Homo sapiens)? 6.00 to 7.00

* * *

pIC50 reference
biological target: human DYRK1A (Homo sapiens); construct: Recombinant full-length DYRK1A (expressed in E. Coli cells with an N-terminal GST tag); GST (N); purchased SignalChem D09-10G; host or cells: E. coli; test: DYRK1A enzyme assay (ADP-Glo); type: biochemical; conditions: ADP-Glo, ATP 60 μM; read-out: DYRK1A IC50
pIC50: −log10 of the molar value.

Please review the following examples before continuing.
# smi, subject-of-test, pIC50
data = [
    ("CC(=O)N(C1=N/C(=C\\c2ccc3ncsc3c2)C(=O)N1)c1ccc2ncsc2c1", "human DYRK1A (Homo sapiens)", "> 7.00"),
    ("O=C1NC(Nc2ccc3c(c2)OCCO3)=N/C1=C\\c1ccc2ncsc2c1", "human DYRK1A (Homo sapiens)", "> 7.00"),
    ("O=C1NC(Nc2ccc3ncsc3c2)=N/C1=C\\c1ccc2c(c1)OCCO2", "human DYRK1A (Homo sapiens)", "< 5.00"),
    ("O=C1NC(N(CC2CC2)c2ccccc2)=N/C1=C\\c1ccc2c(c1)OCO2", "human DYRK1A (Homo sapiens)", "6.00 to 7.00"),
    ("O=C1NC(Nc2ccc3ncsc3c2)=N/C1=C\\c1ccc2nc[nH]c2c1", "human DYRK1A (Homo sapiens)", "> 7.00"),
    ("NC1=N/C(=C\\c2ccc3ncsc3c2)C(=O)N1", "human DYRK1A (Homo sapiens)", "> 7.00"),
]

Record `Cn1ncc2ccc(/C=C3\N=C(Nc4ccccc4)NC3=O)cc21` : what is its pIC50 with human DYRK1A (Homo sapiens)? < 5.00

Record `COc1ccccc1N(C)C1=N/C(=C\c2ccc3c(c2)OCO3)C(=O)N1` : what is its pIC50 with human DYRK1A (Homo sapiens)? 6.00 to 7.00

Record `Cn1cnc2cc(NC3=N/C(=C\c4ccc5ncsc5c4)C(=O)N3)ccc21` : what is its pIC50 with human DYRK1A (Homo sapiens)? > 7.00

* * *

target: human HIPK1 (Homo sapiens, UniProt Q86Z02); construct: Recombinant human HIPK1 (156-555); GST (N); purchased SignalChem H03-11G; host or cells: Sf9 insect cells; assay: HIPK1 enzyme assay (ADP-Glo); format: biochemical; conditions: ADP-Glo, ATP 5 μM; read-out: HIPK1 IC50
Sequence (Q86Z02 156-555): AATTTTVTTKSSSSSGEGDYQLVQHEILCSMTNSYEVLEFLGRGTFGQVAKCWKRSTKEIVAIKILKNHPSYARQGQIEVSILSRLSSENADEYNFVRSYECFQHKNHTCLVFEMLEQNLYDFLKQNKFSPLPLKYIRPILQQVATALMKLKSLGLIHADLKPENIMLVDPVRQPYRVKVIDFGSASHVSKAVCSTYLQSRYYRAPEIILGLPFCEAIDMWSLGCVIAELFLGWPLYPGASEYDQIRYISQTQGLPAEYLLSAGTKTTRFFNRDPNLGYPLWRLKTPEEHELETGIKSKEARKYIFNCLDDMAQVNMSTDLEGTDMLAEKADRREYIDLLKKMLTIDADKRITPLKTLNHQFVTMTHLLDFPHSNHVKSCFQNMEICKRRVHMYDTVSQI
IC50 reference

Please review the following examples before continuing.
# compound, IC50
rows = [
    ("CN1C(=O)/C(=C/c2ccc3ncsc3c2)N=C1Nc1ccc2ncsc2c1 [Example 88]", "> 10 µM"),
    ("O=C1NC(N(Cc2ccccc2)c2ccccc2)=N/C1=C\\c1ccc2[nH]cnc2c1 [Example 35]", "> 10 µM"),
    ("O=C1/C(=C/c2ccc3c(c2)OCO3)N=C(N(Cc2ccccc2)c2ccccc2)N1Cc1ccccc1 [Example 2]", "> 10 µM"),
]

Given the compound CN(C1=N/C(=C\c2ccc3[nH]ccc3c2)C(=O)N1)c1ccc2ncsc2c1 [Example 87] , what is its reported IC50? > 10 µM

Given the compound O=C1NC(NC23CC4CC(CC(C4)C2)C3)=N/C1=C\c1ccc2scnc2c1 [Example 50] , what is its reported IC50? > 10 µM

Given the compound Cn1cnc2ccc(/C=C3\N=C(Nc4ccc5ncsc5c4)NC3=O)cc21 [Example 75] , what is its reported IC50? < 0.1 µM

* * *

system: Neonatal Rat Ventricular Myocytes (NRVMs); assay: Myocyte proliferation assay (EdU assay) in neonatal rat ventricular myocytes; assay type: cell-based; details: compound 3 uM, growth relative to blank myocyte growth without compound added
measured-metric: Avg 3 uM (average myocyte proliferation)

Please review the following examples before continuing.
# compound, Avg 3 uM (average myocyte proliferation)
records = [
    ("O=C1NC(Nc2ccc3ncsc3c2)=N/C1=C\\c1ccc2c(c1)OCCO2 [Example 74]", "*** (>50%)"),
    ("CN(C1=N/C(=C\\c2ccc3ncccc3c2)C(=O)N1)c1ccc2ncsc2c1 [Example 85]", "** (10%-50%)"),
    ("CN(C1=N/C(=C\\c2ccc3c(c2)OCCO3)C(=O)N1)c1ccc2ncsc2c1 [Example 84]", "** (10%-50%)"),
    ("O=C1NC(N(CCO)c2ccccc2)=N/C1=C\\c1ccc2c(c1)OCO2 [Example 13]", "** (10%-50%)"),
]

Given the compound O=C1NC(Nc2ccccc2)=N/C1=C\c1ccc2occc2c1 [Example 52] , what is its reported Avg 3 uM (average myocyte proliferation)? ** (10%-50%)

Given the compound CN(C1=N/C(=C\c2ccc3c(c2)OCO3)C(=O)N1)c1ccccc1 [Example 1] , what is its reported Avg 3 uM (average myocyte proliferation)? *** (>50%)

Given the compound CN(C1=N/C(=C\c2ccc3[nH]ccc3c2)C(=O)N1)c1ccc2ncsc2c1 [Example 87] , what is its reported Avg 3 uM (average myocyte proliferation)? ** (10%-50%)

Given the compound O=C1NC(NCC2CC2)=N/C1=C\c1ccc2ncsc2c1 [Example 34] , what is its reported Avg 3 uM (average myocyte proliferation)? *** (>50%)

Given the compound CN(CC1CC1)C1=N/C(=C\c2ccc3c(c2)OCO3)C(=O)N1 [Example 11] , what is its reported Avg 3 uM (average myocyte proliferation)? ** (10%-50%)

Given the compound COc1ccccc1N(C)C1=N/C(=C\c2ccc3c(c2)OCO3)C(=O)N1 [Example 21] , what is its reported Avg 3 uM (average myocyte proliferation)? *** (>50%)

Given the compound O=C1NC(NCc2ccccc2)=N/C1=C\c1ccc2ncsc2c1 [Example 31] , what is its reported Avg 3 uM (average myocyte proliferation)? ** (10%-50%)

Given the compound O=C1NC(Nc2ccccc2)=N/C1=C\c1ccc2scnc2c1 [Example 14] , what is its reported Avg 3 uM (average myocyte proliferation)? ** (10%-50%)

* * *

biological target: human HIPK1 (Homo sapiens); construct: Recombinant human HIPK1 (156-555); GST (N); purchased SignalChem H03-11G; host or cells: Sf9 insect cells; assay: HIPK1 enzyme assay (ADP-Glo); format: biochemical
pIC50: −log10 of the molar value.
measured-metric: pIC50

Given the molecule `CC(=O)N(C1=N/C(=C\c2ccc3c(c2)OCO3)C(=O)N1)c1ccccc1` , what is its reported pIC50? 6.00 to 7.00

* * *

pIC50 reference
biological target: human GSK3 beta (Homo sapiens, UniProt P49841); construct: Recombinant full-length human GSK3 beta (expressed in Sf9 insect cells with an N-terminal His tag); His (N); purchased SignalChem G09-10H; host or cells: Sf9 insect cells; assay: GSK3 beta enzyme assay (ADP-Glo); assay type: biochemical; settings: ATP 25 μM, read-out: GSK3b IC50
Sequence (P49841 whole entry): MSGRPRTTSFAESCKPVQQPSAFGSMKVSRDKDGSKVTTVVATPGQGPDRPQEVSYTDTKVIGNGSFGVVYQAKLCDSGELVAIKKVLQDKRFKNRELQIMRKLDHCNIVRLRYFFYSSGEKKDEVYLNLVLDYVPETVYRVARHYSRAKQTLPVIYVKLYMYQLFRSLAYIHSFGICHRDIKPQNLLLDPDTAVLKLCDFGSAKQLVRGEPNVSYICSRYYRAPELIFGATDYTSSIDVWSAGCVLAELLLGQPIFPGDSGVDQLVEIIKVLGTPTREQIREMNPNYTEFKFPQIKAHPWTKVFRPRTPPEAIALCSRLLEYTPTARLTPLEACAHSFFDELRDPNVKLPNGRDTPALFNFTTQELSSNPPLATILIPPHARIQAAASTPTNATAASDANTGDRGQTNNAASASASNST
pIC50: −log10 of the molar value.

# smi, result
rows = [
    ("O=C1NC(NCCN2CCOCC2)=N/C1=C\\c1ccc2ncsc2c1", "5.00 to 6.00"),
]

# next compound below
Record `CC(C)NC1=N/C(=C\c2ccc3scnc3c2)C(=O)N1` : what is its pIC50 with human GSK3 beta (Homo sapiens, UniProt P49841)? < 5.00
